Listing: MIC of selected compounds
- Test system: Acinetobacter baumannii
- procedure-text: Antibacterial activity against Acinetobacter baumannii AB1901 clinical isolate incubated for 18 to 24 hrs by broth microdilution method
- Type: functional
Where a SMILES comes first, the peptide text is derived from it.

compound	MIC
CC(C)[C@H](NC(=O)[C@H](CCCNC(=N)N)NC(=O)[C@H](Cc1c[nH]c2ccccc12)NC(=O)[C@H](CCCNC(=N)N)NC(=O)[C@@H](NC(=O)[C@H](CCCCN)NC(=O)[C@H](Cc1c[nH]c2ccccc12)NC(=O)[C@H](CCCNC(=N)N)NC(=O)[C@@H](NC(=O)[C@H](CCCNC(=N)N)NC(=O)[C@@H](N)Cc1c[nH]c2ccccc12)C(C)C)C(C)C)C(=O)N[C@@H](CCCCN)C(N)=O (H-WRVRWKVRWRVK-NH2)	2 µM
CN[C@H](CC(C)C)C(=O)N[C@H]1C(=O)N[C@@H](CC(N)=O)C(=O)N[C@H]2C(=O)N[C@H]3C(=O)N[C@H](C(=O)N[C@H](C(=O)O)c4cc(O)cc(O)c4-c4cc3ccc4O)[C@H](O)c3ccc(c(Cl)c3)Oc3cc2cc(c3O[C@@H]2O[C@H](CO)[C@@H](O)[C@H](O)[C@H]2O[C@H]2C[C@](C)(N)[C@H](O)[C@H](C)O2)Oc2ccc(cc2Cl)[C@H]1O	> 128 µM
CC(C)[C@H](NC(=O)[C@H](CCCNC(=N)N)NC(=O)[C@H](Cc1c[nH]c2ccccc12)NC(=O)[C@H](CCCNC(=N)N)NC(=O)[C@@H](NC(=O)[C@H](CCCCN)NC(=O)[C@H](Cc1c[nH]c2ccccc12)NC(=O)[C@H](CCCNC(=N)N)NC(=O)[C@@H](NC(=O)[C@H](CCCNC(=N)N)NC(=O)[C@@H](N)Cc1c[nH]c2ccccc12)C(C)C)[C@@H](C)O)C(=O)N[C@@H](CCCCN)C(N)=O (H-WRVRWKTRWRVK-NH2)	8 µM
CC(C)(O/N=C(\C(=O)N[C@@H]1C(=O)N2C(C(=O)[O-])=C(C[n+]3ccccc3)CS[C@H]12)c1csc(N)n1)C(=O)O	> 128 µM
C[C@@H](O)[C@H](NC(=O)[C@H](CCCNC(=N)N)NC(=O)[C@H](Cc1c[nH]c2ccccc12)NC(=O)[C@H](CCCNC(=N)N)NC(=O)[C@@H](NC(=O)[C@H](CCCNC(=N)N)NC(=O)[C@H](Cc1c[nH]c2ccccc12)NC(=O)[C@H](CCCNC(=N)N)NC(=O)[C@@H](NC(=O)[C@H](CCCNC(=N)N)NC(=O)[C@@H](N)Cc1c[nH]c2ccccc12)[C@@H](C)O)[C@@H](C)O)C(=O)N[C@@H](CCCNC(=N)N)C(N)=O (H-WRTRWRTRWRTR-NH2)	32 µM
CC(C)C[C@H](NC(=O)[C@H](CCCCN)NC(=O)[C@H](Cc1c[nH]c2ccccc12)NC(=O)[C@H](CCCCN)NC(=O)[C@H](CC(C)C)NC(=O)[C@H](CCCCN)NC(=O)[C@H](Cc1c[nH]c2ccccc12)NC(=O)[C@H](CCCCN)NC(=O)[C@H](CC(C)C)NC(=O)[C@H](CCCCN)NC(=O)[C@@H](N)Cc1c[nH]c2ccccc12)C(=O)N[C@@H](CCCCN)C(N)=O (H-WKLKWKLKWKLK-NH2)	2 µM
CC(C)C[C@H](NC(=O)[C@H](CCCNC(=N)N)NC(=O)[C@H](Cc1c[nH]c2ccccc12)NC(=O)[C@H](CCCNC(=N)N)NC(=O)[C@@H](NC(=O)[C@H](CCCNC(=N)N)NC(=O)[C@H](Cc1c[nH]c2ccccc12)NC(=O)[C@H](CCCNC(=N)N)NC(=O)[C@H](CC(C)C)NC(=O)[C@H](CCCNC(=N)N)NC(=O)[C@@H](N)Cc1c[nH]c2ccccc12)[C@@H](C)O)C(=O)N[C@@H](CCCNC(=N)N)C(N)=O (H-WRLRWRTRWRLR-NH2)	4 µM
